Tested on: MS2 coat protein
Test: apparent KD of MS2 coat protein; designed switch direction (-1 OFF switch, 1 ON switch): 1; higher = weaker reporter binding
Conditions: input ligand: none
Exercise: state measured apparent KD of MS2 coat protein for each of the sequences provided.
Give bare numbers, in nM.

Recorded apparent KD of MS2 coat protein, per entry:
Query :: Provide apparent KD of MS2 coat protein, tested on MS2 coat protein, for UUAAUAAAUCAAGGAUAUCACGUCGAAUAGACGUGAGAAGGUGAUCAUAACAUGAGGAUCACCCAUGUAUUACAUGAAUAUUAA [SSNG1/1-B1] (Eterna round: R96, puzzle: Same State NG 1) .
Result :: 512

Query :: Fill: apparent KD of MS2 coat protein (MS2 coat protein) for this sequence UAAAUAAAGUAAGGAUAUACAUGAGGAUUUCUCGUAGAAGGUACAAGACAUGAGGAUCACCCAUGUAUCGCUCGAAAGAGCGUA [Mat - Same State NG 1 - JL mod - D22] (Eterna round: R96, puzzle: Same State NG 1)
Result :: 208

Query :: # lookup: MS2 coat protein apparent KD of MS2 coat protein, key = CUGAGCGAUCGAGGAUAUCACGUCGAAUAGACGUGAGAAGGCGAUCAUAACAUGAGGAUCACCCAUGUAUUACAUGAAGCUCAG [SSNG1/4-A1] (Eterna round: R96, puzzle: Same State NG 1)
Result :: 17.8

Query :: State measured apparent KD of MS2 coat protein of the sequence AGAAGACAUGAGGAUCACCCAUGUACCUCAUAAGGAGAGAGCGAGGAUAUGUAGAGAGAGAGGGAGCAGAAGGUGUGGGAGGAA [Default title] (Eterna round: R96, puzzle: Same State NG 3) with MS2 coat protein.
Result :: 262

Query :: Report apparent KD of MS2 coat protein from MS2 coat protein testing of ACAUGAGACCGAGGAUAUAUUGUACCUACAUGUGACAUGAGGAUCACCCAUGUGGUAAGUAUGACAUAGAAGGCGGAGAUAUGU [Equivalance 92 - Jieux - Same State NG 2] (Eterna round: R96, puzzle: Same State NG 2)
Result :: 30.1

Would you mind listing apparent KD of MS2 coat protein for each of the following sequences?
1. UUUAGUUGCGGGCAGGAUAUGUGUUAAAAUACAUGAGGAUCACCCAUGUGCGGGUAUAACACCCGACAGAAGGGCCAAUCGCGAC [Laonerce - 2] (Eterna round: R96, puzzle: Same State 2)
2. ACUUAGUACAAUUUAGAUCUACAUGAGGAUCACCCAUGUACUGAGGAUAUCAGCUCGAUUAGAGCUGAGAAGGCAGAAGUACUU [SSNG3/8-A2] (Eterna round: R96, puzzle: Same State NG 3)
3. UCGGGCGUACUUGCUGACAUGAGGAUCACCCAUGUAAAUGGGAAGGAUAUGGUUCCGUUUCGGUACCAGAAGGUCCUGGGUGCU [salish99_SSNG3_r04_310] (Eterna round: R96, puzzle: Same State NG 3)
4. CUGAGAAGUCAAGGAUAUCACGUCGAUUAGACGUGAGAAGGUGAUCAUUACAUGAGGAUCACCCAUGUGUUACAUGGAACUCAG [Brourd's SSNG1/1-A2 mod 7] (Eterna round: R96, puzzle: Same State NG 1)
5. AAUUUCUAGAGAGGAUAUGCAGAGGAUCACCCUGCAGAAGGCUCGAGAGAGAGGAUAUGCAGAGGAUCACCCUGCAGAAGGCUC [pwkr ssNG DX.29] (Eterna round: R96, puzzle: Same State NG 1)
6. UGACACACGGCAGGAUAUCCUUAGCAAAGCUAAGGAGAAGGGCCUCAUGUCGUGGAAACGUGACAUGAGGAUCACCCAUGUCGC [Omei SS(NG)1 Cv8] (Eterna round: R96, puzzle: Same State NG 1)
7. AUUUUUAAUGCAGGAUAUGAUUAACAUGAGGAUCACCCAUGUGGUGUUGUGAGUAAGGAGAGUGAUCAGAAGGGCAUUUUUUUA [JMF's solution 89] (Eterna round: R96, puzzle: Same State NG 2)

Result ::
1. 54.9
2. 220
3. 1030
4. 762
5. 18.4
6. 34.1
7. 585

----------
Tested on: MS2 coat protein
Experiment: apparent KD of MS2 coat protein; higher = weaker reporter binding
Details: Eterna round: R107; input ligand: none
Assign apparent KD of MS2 coat protein to each entry below.
Give bare numbers, in nM.

Query :: Report value only: apparent KD of MS2 coat protein, MS2 coat protein, GCCGCGGCCGCGAUACACAUGGGUGUGUAACGAGGACCGGUACGGCCGCCACUCGAGAUGAUGUACAUGAGGAUCACCCAUGUAC [Exclusion Tryp A GF13]
Result :: 11.6

Query :: Provide MS2 coat protein apparent KD of MS2 coat protein reading for UGUUUCGCGGGCGAUACCAGCUUGAUCGUACUGGCCUGGUACAUGAGGAUCACCCAUGUAAGCCCUUGGCAGCGCGCGCGAGACG [#1 Exclusion - Theophylline B Attempt #3 (HarryS)] .
Result :: 13.5

Query :: Fetch value of apparent KD of MS2 coat protein on MS2 coat protein for AGGACGGUCGGAAGGAGCGGUACAUGAGGAUCACCCAUGUACUUCUGGGCAUCCGUAGAGUGCCAGGUAGGUCGCCGAUUGCGGG [XArg-B10] .
Result :: 9.36

Query :: Give reported apparent KD of MS2 coat protein for AUACAUGAGGAUCACCCAUGUUAUAGUGAAGGAGCGACAUUUAUGUCAGGUAGGUCGCACUAUUGUUUAAUGAUUCUUGGAUCUU [JR_ExcArginiA_Sub017] (MS2 coat protein)
Result :: 15.2

Query :: Under MS2 coat protein: report apparent KD of MS2 coat protein of AGAGCAUUGACGGCCGCCACUCAUGUCACAUGAGGAUCACCCAUGUGAUGGGUAAUCGCCCGGUUGAGGACCGGGUCAAUGCUCA [Omei Tryp SS B v3] .
Result :: 6.99

Shifting focus to the sequence that follows.
Query :: Fill: apparent KD of MS2 coat protein (MS2 coat protein) for this sequence GGGUACAUCGCGGCCGCCACUCAUGUAAAUACCUGAGGAUCACCCUGGUCGAUGGAGACAUCGAAGAGGACCGGGUGAUGUACCG
Result :: 252

----------
For each entry below, report its apparent KD of K4 kissing-loop reporter value.
Tested on: K4 kissing-loop RNA reporter;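 also: bound reporter read as fluorescence of individual clusters on recovered sequencing chips by microscopy, with normalized cluster intensities fitted with a binding model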
Assay: apparent KD of K4 kissing-loop reporter; higher = weaker reporter binding
Details: Eterna round: R107; input ligand: arginine 13.2 mM
Numbers only, in nM.

Query :: For the sequence AAGCAGUCUCUUGUAACCAUCGAAGAUGGACGAGGACCGGUACGGCCGCCACUCGGAGUGAUGUUCCGAAGACUGCAAAAUAAAA [MatMod 15 - Jieux - Exclusion - Tryptophan A] , report apparent KD of K4 kissing-loop reporter.
Result :: 712

Query :: Quickly give me recorded apparent KD of K4 kissing-loop reporter for AAUAAUUUCAGAGGAUAUGCUUUAUUAUGAUUUUUAAAUAAUAAAUGCAGUGAUGUUGCUUAUUAUGCAGAAGGCUGAUUUAUAA [JR_SSFMNB_Sub015]
Result :: 727

Query :: Output apparent KD of K4 kissing-loop reporter of GGGAGGAGUGGUGUUGAUUAAGAAGCGGAAGGAGCGCCGAAGAAGGCAGGUAGGUCGCCGGAAUAUAGUGAUGUUAUAUAGAGGG [ExArg.E]
Result :: 323

Query :: Given UUAGGAGUGGAAGGAUAUCCUGGUGUGGGUGAUGUUAGUGAUGUUGAAAGUGCAGUGAUGUUGUGCGGAGAAGGUCCGGUGUUGA [BDazzled - #8 - Exc. FMN B] , respond with its apparent KD of K4 kissing-loop reporter.
Result :: 124

Query :: Supply recorded apparent KD of K4 kissing-loop reporter for GGAUAGGAUAGAGGAUAUGGUAUAUGCAAGAAUAACUUGUCAUGUAAAUCCAUGAGGAGUGAUGUUCCAGAAGGCUGUCCUAUCG [MatMod 10 - Jieux - Exclusion - FMN B] here.
Result :: 324

Query :: Provide only the value of recorded apparent KD of K4 kissing-loop reporter for AGUGGACGUUACCGGAGUGAUGUUUCGGAUACCAGACACGAAAGUGUCCCUUGGCAGCCGUAGUGAUGUUACGGAGUUCACUAAA [KL-XTheo-A12 #KL 2]
Result :: 61.5

Items follow; give apparent KD of K4 kissing-loop reporter for each.
1. UUUAAAUAUAGUGAUGUUAUAUAACAAUGACGAGGACCGGUACGGCCGCCACUCGAGAGAGAUAAUGGUCUUACAAAUGUAAGUC [AstrosSSTryA#8]
2. GGAGUAACCUGGGAUACCAGUCGGAGGCCUAGGGAUCGGAGUGAUGUUCUGGGAUGUUUCGGCCCUUGGCAGCUCUGGGUCUCCG [#2 Exclusion - Theophylline B Attempt #2 (HarryS)]
3. GGAUAGGAUAGAGGAUAUGGGUUAGGCAAGAAUAACUUGUCUAGUAAAUCCAUGAGGAGUGAUGUUCCAGAAGGCUGUCCUAUCG [MatMod 4 - Jieux - Exclusion - FMN B]
4. UUGAGCCGGACUUAAGUCCGGCUCUGCGAGCGAGGACCGGUACGGCCGCCACUCGGUGCAGUGAUGUUGCAUGGCCGCAAGGCCG [#2 Exclusion - Tryptophan A Attempt #11 (HarryS)]
5. ACCUACCAUUAGUGAUGUUAAUGGACGGAAGGAGCGCAGAUAUCUGCAGGUAGGUCGCCGAAGGCUAGACAUUGUCUAGCCAUUA [AK1.1 SS Arginine A]
6. UGACUGGACUGAAGGAGCGUUCAGGUAGGUCGCAUAGGAGUGAUGUUCCAAUGAAGGAGCGAGCAGGUAGGUCGCAGUCUAGUCU [ArgBS 13 #DoubleAptamer #SwitchBubble]

Result ::
1: 589; 2: 105; 3: 125; 4: 209; 5: 178; 6: 219
